List of cytotoxicity at 70.5 h values.
Experiment: Human HepG2 cell viability assay in 384 well format
Assay type: toxicity, cell-based
Set-up: dose 125 nL, time 70.5 hour; concentration not given beside the values
Conditions: HepG2 cells, read-out: Inhibition
Value expressed in %; do not type the unit.

Recorded cytotoxicity at 70.5 h, per entry:
MOLECULE	cytotoxicity at 70.5 h / %
COCC(=O)N1Cc2nccn2CC(COc2cccnc2)C1 (stereo not drawn)	-14.4
CCc1cc(=O)n(CC(=O)N2CCCCC2)c(-c2cccc(F)c2)n1	-9.52
O=S1(=O)COCCN1Cc1ccc(Cl)c(F)c1	-6.23
Cc1noc(C(C)N2CCN(Cc3nnc(C4CC4)o3)CC2)n1 (stereo not drawn)	-3.98
CN(Cc1cccc(-n2cccn2)c1)c1cc(N2CCCC2)nc(N)n1	-16.8

Q) Which cytotoxicity at 70.5 h is reported for this molecule? Cc1ccc(-c2cnc(CCC(=O)NCCN3CCOCC3)o2)cc1C
A) 2.52

Q) Moving on to the next molecule: CSCC(C)(O)CNC(=O)c1cccc(Cl)c1Cl (stereo not drawn)
A) -5.93

Q) Moving on to the next molecule: CNC(=O)COc1cccc(CNC(=O)c2c(C)noc2C(C)C)c1
A) -13.2

Cited source for all entries: ChEMBL document CHEMBL3507680
